// provenance: patent US8853149

Molecular target: integrins
Test: cell-based or functional assay
recorded_endpoint: IC50 (µM), bioactivity of cyclic III peptide analogs

I = KLKLKAVVSW (here or on the partner: head-to-tail cyclic; two T1 linkers (NH2CH2CH2N(SO2Me)CH2COOH) join the strands) [cyclic III peptide 7 (KLKLK-T1-AVVSW-T1)]
II = KLKLKMAVSW (here or on the partner: head-to-tail cyclic; two T1 linkers (NH2CH2CH2N(SO2Me)CH2COOH) join the strands) [cyclic III peptide 6 (KLKLK-T1-MAVSW-T1)]
III = KLKLKMVVSA (here or on the partner: head-to-tail cyclic; two T1 linkers (NH2CH2CH2N(SO2Me)CH2COOH) join the strands) [cyclic III peptide 3 (KLKLK-T1-MVVSA-T1)]
Hello, I need these entries ordered by IC50 (µM), bioactivity of cyclic III peptide analogs, highest reading first. Thanks! Give your ranking as a list of the labels in the requested order. III, I, II
(III: 57 µM, I: 31 µM, II: 6 µM)
